Give TGI for every item shown.
# Tested on: RXF 393 renal
# assayOverview: NCI tumour cell line growth inhibition, 48 h
One number for each entry, in µM.

See these solved cases before continuing.
molecule	reported
COc1c(OC(C)C)c(OC(C)C)c2oc(=O)n3c2c1C(c1ccccc1-n1c(C)ccc1C)C=C3 (configuration not stated)	62.5
Nn1c(CCCCCCCCc2nnc(COc3ccc4ccccc4c3O)n2N)nnc1COc1ccc2ccccc2c1O	80.3
C=C1C(=O)O[C@H]2[C@H]1CC/C(COC(=O)c1cc3ccccc3o1)=C\CC[C@@]1(C)O[C@@H]21	2.87

Give TGI for each listed item.
1. COc1cc2c(cc1OC)-c1ccc3cc4c(cc3c1N(CCCn1ccnc1)C2)OCO4
2. CC1=C(C(=O)Nc2ccc(Cl)c(Cl)c2)C(c2cccc(Cl)c2)NC(=O)N1 (configuration not stated)
3. CC1=CC[C@H](C(C)C)C(C(O)[C@@H](C)O[Si](c2ccccc2)(c2ccccc2)C(C)(C)C)C1=O (some centres not stated)

**A:**
16.3
32.6
30.8

---

# System: HOP-62 NSCLC
# assayOverview: NCI tumour cell line growth inhibition, 48 h; in the data active = GI50 below about 0.43 µM; inactive = the rest
Hello, when you answer, please use one of the following outcomes: yes (active), no (inactive)

molecule	groupLabel
C[C@]12CC[C@@H]3c4cc(-c5ccc(F)cc5)c(O)cc4CC[C@H]3[C@@H]1CC[C@@H]2O	no
CC(=Nc1ccccc1)C1=C(O)C(Cc2ccc(O)cc2)NC1=O (stereo not given)	yes
CCCN(CCC)c1ccc(/C=C/c2ccc3cc(OCC)ccc3n2)cc1	no
NC1CCC(Nc2nc(NCc3ccc(-c4ccccc4O)nc3)c3ncn(C4CCCC4)c3n2)CC1 (stereo not given)	yes

**Q:** Hi, sorry to bother you, what did the test record for CNC(=S)NC(=O)c1c(Cl)n(C(=O)OC(C)(C)C)c2ccccc12 ?
**A:** no

---

# Tested on: LOX IMVI melanoma
# assayOverview: NCI tumour cell line growth inhibition, 48 h; in the data active = GI50 below about 0.43 µM; inactive = the rest
Return exactly one item of 1.0 (active), 0.0 (inactive)

Examples from the recorded data:
compound	assayTarget	groupLabel
C=C(NC(=O)C(=C)NC(=O)c1csc(C2=NC3c4csc(n4)C4NC(=O)c5csc(n5)C(C(C)(O)C(C)O)NC(=O)C5CSC(=N5)C(=CC)NC(=O)C(C(C)O)NC(=O)c5csc(n5)C3(CC2)NC(=O)C(C)NC(=O)C(=C)NC(=O)C(C)NC(=O)C(C(C)CC)NC2C=Cc3c(C(C)O)cc(nc3C2O)C(=O)OC4C)n1)C(N)=O (centres undefined)	LOX IMVI melanoma	0.0
C=C1C(=O)O[C@H]2[C@H]1CC/C(COC(=O)c1cc3ccccc3o1)=C\CC[C@@]1(C)O[C@@H]21	LOX IMVI melanoma	0.0
Cc1ccc(Cc2cnc(NC(=O)/C=C/c3cccc(C)c3)s2)cc1	LOX IMVI melanoma	1.0

**Q:** Which outcome did this test record for the compound CS(=O)(=O)CCNCc1ccc(-c2ccc3ncnc(Nc4ccc(OCc5ccccc5)c(Br)c4)c3c2)o1 ?
**A:** 0.0

---

# System: OVCAR-3 ovarian
# assayOverview: NCI tumour cell line growth inhibition, 48 h
For each entry below, report its TGI value.

Recorded results for 5 molecules are shown here.
molecule	TGI
O=C1c2ccccc2-c2oc(=O)c3ccccc3c21	> 100 µM
COC(=O)c1ccc(NC(=O)O/N=C(\Cl)C(C)C)cc1	4.17 µM
CCCCCCCCCCCCN1[C@H]2CCC[C@H]2C(O)[C@@H]2CCC[C@@H]21 (some centres undefined)	> 100 µM
C=CCN1C(=O)/C(=C\c2cc(C(C)(C)C)c(O)c(C(C)(C)C)c2)NC1=S	39.6 µM
Oc1c(Cl)c(Cl)c(O)c(CCNc2ccc3ncccc3c2)c1Cl	35 µM

Working through the 3 molecules below one at a time, give TGI for each.
1. COc1c(OC(C)C)c(OC(C)C)c2oc(=O)n3c2c1C(c1ccccc1-n1c(C)ccc1C)C=C3 (centres undefined)
2. Cn1c(=O)n2n(c1=O)C(S(=O)(=O)c1ccccc1)C2 (centres undefined)
3. CN=c1c2c(c3[nH]c4ccccc4c4cnc1c34)NCCC2=O

**A:**
> 100 µM
> 100 µM
> 10 µM

**Q:** Fill in: TGI of CCN1C(=O)C(=C/C=C/C=C2/N(C)c3ccccc3C2(C)C)C(=O)N(CC)C1=S is ___
**A:** > 100 µM

---

# Test system: HCT-15 colon
# assayOverview: NCI tumour cell line growth inhibition, 48 h
readoutName: TGI

molecule	assayTarget	TGI
CN(C)CC1CN=C(N)O1 (stereo unspecified)	HCT-15 colon	> 100 µM
Nc1ccc2c(=O)cc(-c3cccs3)[nH]c2n1	HCT-15 colon	> 60.4 µM
CCN1C(=O)C(=C/C=C/C=C2/N(C)c3ccccc3C2(C)C)C(=O)N(CC)C1=S	HCT-15 colon	> 100 µM
O=C(Nc1ccccc1)c1cc2ccccc2c(N=Nc2ccc([N+](=O)[O-])cc2)c1O	HCT-15 colon	> 100 µM
Nc1c2ccccc2nc2ccc3c(=O)cc(-c4ccccc4)oc3c12	HCT-15 colon	4.3 µM

Attention now turns to another entry.
**Q:** Could you share which TGI value was measured for Cc1nc(C(N)=S)sc1C(=O)CC(=O)C(=O)Nc1ccccc1[N+](=O)[O-] ?
**A:** > 100 µM

---

# System: SK-MEL-2 melanoma
# assayOverview: NCI tumour cell line growth inhibition, 48 h
readoutName: TGI

// worked examples, TGI included
compound	readoutName	reported
CC(=O)NC1=C(NC(C)(C)C)C(=O)c2ccccc2C1=O	TGI	42.9 µM
CC1=CC[C@H](C(C)C)C(C(O)[C@@H](C)O[Si](c2ccccc2)(c2ccccc2)C(C)(C)C)C1=O (some centres not stated)	TGI	32 µM
Oc1cc2c3c(c1)CCCN3CCC2	TGI	> 10 µM

Would you mind listing TGI for each of the following compounds?
1. CN(C)CCCNc1ccc2c(=O)n(CCN(C)C)c(=O)n3c4ccccc4c(=O)c1c23
2. CCOC(=O)NC1C2CC(=O)OC(O2)C1OC(C)=O (configuration not stated)
3. Nc1nc2c(c(=O)[nH]1)C(c1ccccc1)CC(=O)N2 (configuration not stated)
4. NC1CCC(Nc2nc(NCc3ccc(-c4ccccc4O)nc3)c3ncn(C4CCCC4)c3n2)CC1 (configuration not stated)
5. CCN(Cc1ccccc1)c1ccc(CO)c(Cl)c1

**A:**
2.52 µM
> 100 µM
> 100 µM
0.0583 µM
24.7 µM

---

# Tested on: A549 NSCLC
# assayOverview: NCI tumour cell line growth inhibition, 48 h
readoutName: TGI

Look over these answered cases.
compound	TGI
Nc1ccc2c(=O)cc(-c3cccs3)[nH]c2n1	> 37.5 µM
CC(C)(C)CC(C)(C)c1cc2c(O)c(c1)Cc1cc(C(C)(C)CC(C)(C)C)cc(c1O)Cc1cc(C(C)(C)CC(C)(C)C)cc(c1O)Cc1cc(C(C)(C)CC(C)(C)C)cc(c1O)Cc1cc(C(C)(C)CC(C)(C)C)cc(c1O)C2	> 100 µM
CCOC(=O)NC1C2CC(=O)OC(O2)C1OC(C)=O (stereo unspecified)	> 100 µM

Dear colleague, could you send me TGI for each of the items below? Thanks.
1. O=P1(Oc2ccc(Cl)cc2Cl)Oc2ccc3ccccc3c2-c2c(ccc3ccccc23)O1
2. C=CCN1C(=O)/C(=C\c2cc(C(C)(C)C)c(O)c(C(C)(C)C)c2)NC1=S
3. Nc1nc(Cl)c(/C=N\O)c(NCC2(CO)CCC2)n1
4. COc1cccc2c1CCc1cc3c(N)nc(N)nc3nc1-2
5. COc1cc(S(=O)(=O)Nc2nc(-c3ccc(N4C(=O)/C(=C/C=C/c5ccccc5)N=C4c4ccccc4)cc3)cs2)ccc1Cl
6. Cc1cc(=O)oc2c(C)c(O)ccc12
7. Cc1ccccc1NC(=O)c1c(C)oc2c1C(=O)c1ccccc1C2=O
8. O=C(c1c(F)c(F)c(F)c(F)c1F)N1CCN(C(=O)c2c(F)c(F)c(F)c(F)c2F)C1=S

**A:**
> 100 µM
> 100 µM
> 100 µM
7.69 µM
> 100 µM
> 100 µM
> 96.1 µM
29.5 µM

Provide the reported TGI of each entry below, same order.
1. COC(=O)c1ccccc1C1CN=NC12Cc1ccccc1C2=O (stereo unspecified)
2. COc1ccc(-c2cc(-c3cccn3C)c(C#N)c(=O)[nH]2)cc1OC
3. CN(C)CCNC(=O)c1cccc2nc3cc(Cl)ccc3nc12
4. CC1(C)CC2=C(Sc3ccccc3N2)C(=O)C1C(=O)C(=O)Nc1cccc([N+](=O)[O-])c1 (stereo unspecified)
5. CCC(=O)Nc1ccccc1C#C/C=C\C#Cc1ccccc1SC
6. O=S(=O)(c1ccccc1)C(c1ccc2ccccc2n1)S(=O)(=O)c1ccccc1
7. Cc1ccc(NC2=C(Cl)C(=O)N(Cc3ccc(Cl)cc3)C2=O)cc1O
8. Nc1nc(N)c2cc(-c3ccccc3)cnc2n1

**A:**
1: > 100 µM; 2: > 100 µM; 3: > 26.7 µM; 4: > 100 µM; 5: > 100 µM; 6: > 100 µM; 7: 29.2 µM; 8: 28 µM

Take each entry in turn and give its TGI.
1. O=C1c2ccccc2CN1c1ccc(OCCN2CCCCC2)cc1
2. N#CC1=C(N)Oc2c(ccc3ccccc23)C1c1ccccc1 (stereo unspecified)

**A:**
1. > 10 µM
2. 18.3 µM
